# test.method.notes: The drug is tested on the gut metagenome community of P-02 with ENA study accession number: PRJEB31790 for biotransformation under anaerobic condition. The drug concentrations were measured over 7 timepoints collected between 0 and 12 hours of incubation by liquid-chromatography-coupled mass spectrometry (LC–MS)
# Format: ADME
# Set-up: dose 5 uM, timepoint 0, 0.75, 1.5, 3, 6, 9, 12 hours
# measurement.context: 5 µM
metric.name: Bacterial Biotransformation

// known answers, use as guide
CCOC(=O)C1=C(COCCN)NC(C)=C(C(=O)OC)C1c1ccccc1Cl (stereo unspecified) [AMLODIPINE] ... Compound NOT metabolized
C[C@@H](NCCCc1cccc(C(F)(F)F)c1)c1cccc2ccccc12 ... Compound NOT metabolized
C[C@]12C=CC(=O)C=C1CC[C@@H]1[C@@H]2C(=O)C[C@@]2(C)[C@H]1CC[C@]2(O)C(=O)CO [PREDNISONE] ... Compound metabolized
CCCC1O[C@@H]2C[C@H]3[C@@H]4CCC5=CC(=O)C=C[C@]5(C)[C@H]4[C@@H](O)C[C@]3(C)[C@]2(C(=O)CO)O1 (stereo partly specified) [BUDESONIDE] ... Compound metabolized
C[C@H]1C[C@H]2[C@@H]3CCC4=CC(=O)C=C[C@]4(C)[C@@]3(F)[C@@H](O)C[C@]2(C)[C@@]1(O)C(=O)CO [BETAMETHASONE] ... Compound metabolized

Query compound follows.
Which Bacterial Biotransformation is reported for this compound? C=CC[C@@H]1/C=C(\C)C[C@H](C)C[C@H](OC)[C@H]2O[C@@](O)(C(=O)C(=O)N3CCCC[C@H]3C(=O)O[C@H](/C(C)=C/[C@@H]3CC[C@@H](O)[C@H](OC)C3)[C@H](C)[C@@H](O)CC1=O)[C@H](C)C[C@@H]2OC.O [TACROLIMUS]
Compound NOT metabolized

----------
# test.method.notes: The drug is tested on Streptococcus salivarius strain: DSM20560 for biotransformation under anaerobic condition. The drug concentrations were measured over 6 timepoints collected between 0 and 12 hours of incubation by liquid-chromatography-coupled mass spectrometry (LC–MS)
# Assay type: ADME
# Parameters: dose 5 uM, timepoint 0, 1.5, 3, 6, 9, 12 hours
# measurement.context: 5 µM
metric.name: Bacterial Biotransformation

// known answers, use as guide
C=CC[C@@H]1/C=C(\C)C[C@H](C)C[C@H](OC)[C@H]2O[C@@](O)(C(=O)C(=O)N3CCCC[C@H]3C(=O)O[C@H](/C(C)=C/[C@@H]3CC[C@@H](O)[C@H](OC)C3)[C@H](C)[C@@H](O)CC1=O)[C@H](C)C[C@@H]2OC.O ... Compound NOT metabolized
Cn1cnc([N+](=O)[O-])c1Sc1ncnc2nc[nH]c12 ... Compound metabolized
C[C@H]1C[C@@H]2[C@H]([C@@H](O)C[C@@]3(C)[C@H]2CC[C@]3(O)C(=O)CO)[C@@]2(C)C=CC(=O)C=C12 ... Compound NOT metabolized
CCOC(=O)C1=C(COCCN)NC(C)=C(C(=O)OC)C1c1ccccc1Cl (centres undefined) ... Compound NOT metabolized
C[C@]12C=CC(=O)C=C1CC[C@@H]1[C@@H]2[C@@H](O)C[C@@]2(C)[C@H]1CC[C@]2(O)C(=O)CO ... Compound NOT metabolized
CCCC1O[C@@H]2C[C@H]3[C@@H]4CCC5=CC(=O)C=C[C@]5(C)[C@H]4[C@@H](O)C[C@]3(C)[C@]2(C(=O)CO)O1 (some centres undefined) [BUDESONIDE] ... Compound NOT metabolized

Which Bacterial Biotransformation is reported for this compound? `C[C@@H](NCCCc1cccc(C(F)(F)F)c1)c1cccc2ccccc12`
Compound NOT metabolized

Which Bacterial Biotransformation is reported for this compound? `CO[C@H]1C[C@@H]2CC[C@@H](C)[C@@](O)(O2)C(=O)C(=O)N2CCCC[C@H]2C(=O)O[C@H]([C@H](C)C[C@@H]2CC[C@@H](OCCO)[C@H](OC)C2)CC(=O)[C@H](C)/C=C(\C)[C@@H](O)[C@@H](OC)C(=O)[C@H](C)C[C@H](C)/C=C/C=C/C=C/1C`
Compound NOT metabolized

Which Bacterial Biotransformation is reported for this compound? `COc1c(C)c2c(c(O)c1C/C=C(\C)CCC(=O)O)C(=O)OC2`
Compound NOT metabolized

Which Bacterial Biotransformation is reported for this compound? COc1c(C)c2c(c(O)c1C/C=C(\C)CCC(=O)OCCN1CCOCC1)C(=O)OC2 [MYCOPHENOLATE MOFETIL]
Compound metabolized

Which Bacterial Biotransformation is reported for this compound? CN(Cc1cnc2nc(N)nc(N)c2n1)c1ccc(C(=O)N[C@@H](CCC(=O)O)C(=O)O)cc1 [METHOTREXATE]
Compound NOT metabolized

Which Bacterial Biotransformation is reported for this compound? `C[C@]12C=CC(=O)C=C1CC[C@@H]1[C@@H]2C(=O)C[C@@]2(C)[C@H]1CC[C@]2(O)C(=O)CO`
Compound NOT metabolized

Which Bacterial Biotransformation is reported for this compound? C[C@]12CCC(=O)C=C1CC[C@@H]1[C@@H]2[C@@H](O)C[C@@]2(C)[C@H]1CC[C@]2(O)C(=O)CO [HYDROCORTISONE]
Compound NOT metabolized

Which Bacterial Biotransformation is reported for this compound? CC(C)NCC(O)COc1ccc(CC(N)=O)cc1 (centres undefined)
Compound NOT metabolized

Which Bacterial Biotransformation is reported for this compound? `CNC(=C[N+](=O)[O-])NCCSCc1ccc(CN(C)C)o1`
Compound NOT metabolized

Which Bacterial Biotransformation is reported for this compound? `C[C@]12CCC(=O)C=C1CC[C@@H]1[C@@H]2C(=O)C[C@@]2(C)[C@H]1CC[C@]2(O)C(=O)CO`
Compound NOT metabolized

Which Bacterial Biotransformation is reported for this compound? NS(=O)(=O)c1cc(C(=O)O)c(NCc2ccco2)cc1Cl [FUROSEMIDE]
Compound NOT metabolized

Which Bacterial Biotransformation is reported for this compound? `CO[C@H]1C[C@@H]2CC[C@@H](C)[C@@](O)(O2)C(=O)C(=O)N2CCCC[C@H]2C(=O)O[C@H]([C@H](C)C[C@@H]2CC[C@@H](O)[C@H](OC)C2)CC(=O)[C@H](C)/C=C(\C)[C@@H](O)[C@@H](OC)C(=O)[C@H](C)C[C@H](C)/C=C/C=C/C=C/1C`
Compound metabolized

----------
# test.method.notes: The drug is tested on the gut metagenome community of A-08 with ENA study accession number: PRJEB31790 for biotransformation under anaerobic condition. The drug concentrations were measured over 7 timepoints collected between 0 and 12 hours of incubation by liquid-chromatography-coupled mass spectrometry (LC–MS)
# Type: ADME
# Set-up: dose 5 uM, timepoint 0, 0.75, 1.5, 3, 6, 9, 12 hours
# measurement.context: 5 µM
metric.name: Bacterial Biotransformation

// known answers, use as guide
C[C@@H]1C[C@H]2[C@@H]3CCC4=CC(=O)C=C[C@]4(C)[C@@]3(F)[C@@H](O)C[C@]2(C)[C@@]1(O)C(=O)CO [DEXAMETHASONE] ... Compound NOT metabolized
COc1c(C)c2c(c(O)c1C/C=C(\C)CCC(=O)O)C(=O)OC2 [MYCOPHENOLIC ACID] ... Compound NOT metabolized
C[C@H]1C[C@@H]2[C@H]([C@@H](O)C[C@@]3(C)[C@H]2CC[C@]3(O)C(=O)CO)[C@@]2(C)C=CC(=O)C=C12 [METHYLPREDNISOLONE] ... Compound metabolized
CCCC1O[C@@H]2C[C@H]3[C@@H]4CCC5=CC(=O)C=C[C@]5(C)[C@H]4[C@@H](O)C[C@]3(C)[C@]2(C(=O)CO)O1 (some centres undefined) [BUDESONIDE] ... Compound metabolized
CNC(=C[N+](=O)[O-])NCCSCc1ccc(CN(C)C)o1 [RANITIDINE] ... Compound NOT metabolized

Which Bacterial Biotransformation is reported for this compound? CCC(C)(C)C(=O)O[C@H]1C[C@@H](C)C=C2C=C[C@H](C)[C@H](CC[C@@H]3C[C@@H](O)CC(=O)O3)[C@H]21 [SIMVASTATIN]
Compound NOT metabolized

Which Bacterial Biotransformation is reported for this compound? COc1c(C)c2c(c(O)c1C/C=C(\C)CCC(=O)OCCN1CCOCC1)C(=O)OC2 [MYCOPHENOLATE MOFETIL]
Compound metabolized

Which Bacterial Biotransformation is reported for this compound? Cn1cnc([N+](=O)[O-])c1Sc1ncnc2nc[nH]c12 [AZATHIOPRINE]
Compound metabolized

Which Bacterial Biotransformation is reported for this compound? `C[C@@H](NCCCc1cccc(C(F)(F)F)c1)c1cccc2ccccc12`
Compound NOT metabolized

----------
# test.method.notes: The drug is tested on the gut metagenome community of A-03 with ENA study accession number: PRJEB31790 for biotransformation under microaerobic condition. The drug concentrations were measured over 7 timepoints collected between 0 and 12 hours of incubation by liquid-chromatography-coupled mass spectrometry (LC–MS)
# Format: ADME
# Design: dose 5 uM, timepoint 0, 0.75, 1.5, 3, 6, 9, 12 hours
# measurement.context: 5 µM
metric.name: Bacterial Biotransformation

COc1c(C)c2c(c(O)c1C/C=C(\C)CCC(=O)O)C(=O)OC2 ... Compound NOT metabolized
CC(C)NCC(O)COc1ccc(CC(N)=O)cc1 (stereo not drawn) ... Compound NOT metabolized
